biological target: Lysosomal acid glucosylceramidase (Homo sapiens); assay: Glucocerebrosidase-p2 (AID 348); conditions: purified GBA, blue fluorogenic substrate, 40 min; also: potency is read from the fitted curve at half-maximal effect
The source made the active and inactive calls. Rule as the data show it: active = potency below about 10 µM; inactive = the rest.
assayReadout: Potency

// worked examples, Potency included
>>> reported("COc1ccc(-c2nc3cnc(N(C)C)nc3n(CCC#N)c2=O)cc1")
"> 11.4 µM (inactive)"
>>> reported("Cc1cccc(CNc2ncncc2-c2ccccc2Cl)c1")
"> 11.4 µM (inactive)"
>>> reported("COc1ccc(-n2c(=O)c(-c3ccc(Cl)cc3)nc3cnc(N(C)C)nc32)cc1")
"> 11.4 µM (inactive)"

Entry "Cn1c(=O)c(CCc2ccccc2)nc2cncnc21" : reported Potency = ?
> 11.4 µM (inactive)

Entry "N#Cc1cccc(NC(=O)N2CCC3(CC2)CCN(C(=O)c2cnccn2)CC3)c1" : reported Potency = ?
> 11.4 µM (inactive)

Entry "Cc1nc2cnc(Oc3cccc(Cl)c3)nc2n(C2CC2)c1=O" : reported Potency = ?
> 11.4 µM (inactive)

---

target: Dual specificity protein kinase CLK4 (Homo sapiens) (UniProt Q9HAZ1); test: qHTS Assay for Inhibitors of CDC-like Kinase 4 (ADP-FP Assay) (AID 1795); settings: Transcreener ADP fluorescence polarization; series mostly up to 50 µM; also: nearly all actives have a fitted effect of over 60% in size
Sequence (Q9HAZ1 whole entry, looked up): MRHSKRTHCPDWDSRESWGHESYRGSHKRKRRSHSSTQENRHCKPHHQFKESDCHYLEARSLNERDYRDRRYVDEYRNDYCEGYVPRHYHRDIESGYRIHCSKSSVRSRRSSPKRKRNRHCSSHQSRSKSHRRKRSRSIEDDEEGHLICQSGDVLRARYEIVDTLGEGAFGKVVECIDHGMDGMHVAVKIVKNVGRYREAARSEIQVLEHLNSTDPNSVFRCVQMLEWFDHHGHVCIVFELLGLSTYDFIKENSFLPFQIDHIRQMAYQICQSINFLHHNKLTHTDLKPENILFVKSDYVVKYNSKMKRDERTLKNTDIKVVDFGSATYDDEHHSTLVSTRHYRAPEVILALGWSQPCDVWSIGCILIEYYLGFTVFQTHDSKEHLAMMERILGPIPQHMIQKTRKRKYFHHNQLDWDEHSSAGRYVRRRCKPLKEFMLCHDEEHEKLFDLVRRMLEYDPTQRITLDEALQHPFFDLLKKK
Results filed as inconclusive are left out. Activity calls are given as the source filed them. Calls follow the shape of the dose curve; as a rule, active = well fitted inhibition curve with a large enough effect; inconclusive = small, poorly fitted or top-dose-only effect; inactive = flat fitted curve, though single readings scatter.
Choose the fitting class; nothing outside active, inactive is accepted.

>>> labelvalue("COc1ccc(Oc2ncc3nc(-c4ccc(Cl)cc4)c(=O)n(C4CC4)c3n2)cc1")
"inactive"

// param item: "Cc1noc(C)c1-c1nccc(N(C)Cc2ccco2)n1" ; yields the recorded call
inactive

// param item: "O=c1c(-c2ccc(F)cc2)nc2cnc(Oc3cccc(Cl)c3)nc2n1C[C@H]1CCCO1" ; yields the recorded call
inactive

// param item: "COc1ccccc1CNc1ccnc(-c2ccc(C(=O)N(C)C)cc2)n1" ; yields the recorded call
inactive

// param item: "COc1ccc(CNc2ncncc2-c2cccc(NS(C)(=O)=O)c2)c(OC)c1" ; yields the recorded call
inactive

// param item: "CNc1ccnc(-c2cccc(NS(C)(=O)=O)c2)n1" ; yields the recorded call
inactive

// param item: "COCCn1c(=O)c(-c2cccc(C#N)c2)nc2cnc(N3CCOCC3)nc21" ; yields the recorded call
inactive

// param item: "CN(Cc1ccco1)c1cc(-c2ccccc2C(F)(F)F)ncn1" ; yields the recorded call
inactive

// param item: "COc1ccccc1CNc1ccnc(-c2cccc(C#N)c2)n1" ; yields the recorded call
active

// param item: "CCNc1ncc2nc(-c3cn(C)c4ccccc34)c(=O)n(Cc3ccc(F)cc3)c2n1" ; yields the recorded call
inactive

// param item: "COc1ccccc1CCn1c(=O)c(-c2cn(C)c3ccccc23)nc2cncnc21" ; yields the recorded call
inactive

---

Measured max response, listed per entry.
test: qHTS Assay for Lipid Storage Modulators (AID 1519); settings: Drosophila S3 cells, BODIPY lipid droplet/cell ratio, laser cytometry; measured here: cell count channel max response; cells loaded with oleic acid
Results filed as inconclusive are left out.
The response must be a number in % with no trailing unit.

// worked examples, max response included
>>> reported("COc1ccc(C(=O)N2CCC3(CC2)CCN(c2ccccc2)CC3)cc1")
9.05
>>> reported("CS(=O)(=O)N1CCC2(CCN(c3ccccn3)CC2)CC1")
5.01
>>> reported("COc1cc2c(cc1OC)C1Cc3ccc(OC)c(OC)c3CN1CC2 (stereo unspecified)")
12.8
>>> reported("O=c1[nH]c(=O)n([C@@H]2C[C@H](O)[C@H](CO)O2)cc1I")
2.86
>>> reported("CC(C)CN1CCCC2(CCN(C(=O)c3cccn3C)CC2)C1")
16.8
>>> reported("CC(=O)N1CCC2(CCCN(Cc3ccccc3)C2)CC1")
-0.297
>>> reported("COCCn1c(=O)c(C)nc2cnc(Nc3cccc(OC)c3)nc21")
-14.8
>>> reported("O=C(Nc1ccccc1)N1CC[C@@]2(CCCN(C(=O)c3cc(C(F)(F)F)cc(C(F)(F)F)c3)C2)C1")
-0.407
>>> reported("CC(=O)NCCNc1ncnc2ccc(-c3ccccc3C)cc12")
28.7
>>> reported("c1ccc(-c2cccc(N3CCCC4(CCNCC4)C3)c2)cc1")
-2.04

Entry "CN[C@@H](CC(C)C)C(=O)N[C@@H]1C(=O)N[C@H](CC(N)=O)C(=O)N[C@@H]2C(=O)N[C@H]3C(=O)N[C@H](C(=O)N[C@H](C(=O)O)c4cc(O)cc(O)c4-c4cc3ccc4O)[C@H](O)c3ccc(c(Cl)c3)Oc3cc2cc(c3O[C@H]2O[C@@H](CO)[C@@H](O)[C@@H](O)[C@@H]2O[C@@H]2C[C@](C)(N)[C@H](O)[C@H](C)O2)Oc2ccc(cc2Cl)[C@@H]1O" : reported max response = ?
5.45

Entry "CS(=O)(=O)N1CCC2(CCCN(C(c3ccccc3)c3ccccc3)C2)CC1" : reported max response = ?
13.3

Entry "CC(=O)N1CCC2(CCCN(c3ccncc3)C2)CC1" : reported max response = ?
1.51

Entry "Cc1noc(C)c1-c1ccc2ncnc(NC3CC3)c2c1" : reported max response = ?
-21.4

Entry "O=C(c1ccncc1)N1CCC[C@@]2(CCN(c3ccncc3)C2)C1" : reported max response = ?
9.21

Entry "Cc1cccc(CNc2cc(-c3cccnc3)ncn2)c1" : reported max response = ?
-10.4

Entry "COc1ccccc1CN1CCCC2(CCN(C(=O)c3cnccn3)CC2)C1" : reported max response = ?
-6.38

Entry "COc1ccc(Oc2ncc3nc(-c4ccc(F)cc4)c(=O)n(C)c3n2)cc1" : reported max response = ?
18

Entry "CN1CCN(c2ncc3ncc(=O)n(Cc4ccc(F)cc4)c3n2)CC1" : reported max response = ?
5.89

Entry "CC(=O)N1CCC[C@@]2(CCN(Cc3nccs3)C2)C1" : reported max response = ?
16.2

Entry "Cc1noc(C)c1C(=O)N1CCC[C@@]2(CCN(C(c3ccccc3)c3ccccc3)C2)C1" : reported max response = ?
12.4

Entry "C[C@@H]1c2cccc(O)c2C(O)=C2C(=O)[C@@]3(O)C(O)=C(C(N)=O)C(=O)[C@@H](N(C)C)[C@@H]3[C@@H](O)[C@@H]21" : reported max response = ?
-6.29

---

target: Cytochrome P450 3A4 (Homo sapiens) (UniProt P08684); assay: qHTS Assay for Inhibitors and Substrates of Cytochrome P450 3A4 (AID 884); settings: recombinant CYP3A4, Luciferin-PPXE luminescence; series mostly up to 57.1 µM; also: % is scaled to controls: 0 for no effect and ±100 for the full control effect; nearly all actives have a fitted effect of over 50% in size
Sequence (P08684 whole entry, looked up): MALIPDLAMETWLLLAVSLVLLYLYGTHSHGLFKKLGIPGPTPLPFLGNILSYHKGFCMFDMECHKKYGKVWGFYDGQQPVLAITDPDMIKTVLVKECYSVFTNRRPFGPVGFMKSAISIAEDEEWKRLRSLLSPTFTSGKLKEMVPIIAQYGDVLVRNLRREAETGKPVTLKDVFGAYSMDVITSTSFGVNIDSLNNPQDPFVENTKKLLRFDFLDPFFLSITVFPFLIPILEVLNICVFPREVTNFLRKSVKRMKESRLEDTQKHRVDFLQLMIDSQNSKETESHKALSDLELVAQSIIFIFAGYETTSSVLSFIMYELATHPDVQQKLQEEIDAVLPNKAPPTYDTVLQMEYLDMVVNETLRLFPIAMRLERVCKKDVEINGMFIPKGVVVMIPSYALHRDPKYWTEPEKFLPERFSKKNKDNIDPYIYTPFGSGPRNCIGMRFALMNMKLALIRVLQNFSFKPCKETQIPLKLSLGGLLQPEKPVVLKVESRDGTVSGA
Inconclusive results are not listed. Calls of active or inactive are those of the source. Calls follow the shape of the dose curve; as a rule, active = well fitted inhibition curve with a large enough effect; inconclusive = small, poorly fitted or top-dose-only effect; inactive = no such curve, though single readings can be large or run the other way.
Choose the fitting class; nothing outside yes (active), no (inactive) is accepted.

>>> labelvalue("Cc1occc(=O)c1O")
"no"

Turning now to a further molecule:
// param item: "CCN1CCC[C@@H]1CNC(=O)c1cc(S(N)(=O)=O)ccc1OC" ; yields the recorded call
no

---

test: AP1 Signaling Pathway (AID 357); conditions: ME-180 (cervical carcinoma) AP-1-bla reporter, EGF-induced, beta-lactamase ratio, 5 h; at 7.69 µM (top of the series) unless noted;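 also: ME-180 reporter cells stimulated with EGF at its EC50 level; % is scaled to controls: 0 for no effect and ±100 for the full control effect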
Records with an inconclusive call do not appear.
assayReadout: activity change, negative = inhibition (%)
The response must be a number in % with no trailing unit.

// worked examples, activity change, negative = inhibition included
>>> reported("CC(=O)NCCNc1nc(-c2cccc(NS(C)(=O)=O)c2)nc2ccccc12")
-17.6
>>> reported("O=c1c(-c2ccc(F)c(F)c2)nc2cncnc2n1Cc1ccc(F)cc1")
2.91
>>> reported("N#Cc1ccc(CN2CCC3(CC2)CCN(C(=O)c2ccncc2)CC3)cc1")
1.51
>>> reported("N#Cc1cccc(NC(=O)N2CCCC3(CCN(C(=O)c4cc(C(F)(F)F)cc(C(F)(F)F)c4)CC3)C2)c1")
-21.5
>>> reported("N#Cc1ccc(CN2CCC3(CC2)CCN(C(=O)c2cccc(F)c2)CC3)cc1")
3.84

Entry "Cc1noc(C)c1-c1nccc(N2CCNCC2)n1" : reported activity change, negative = inhibition = ?
14.5

Entry "COc1ccc(NC(=O)N2CCCC3(CCN(C(=O)c4cccn4C)CC3)C2)cc1" : reported activity change, negative = inhibition = ?
-2.59

Entry "COc1cccc(Cn2c(=O)c(-c3cccc(C#N)c3)nc3cnc(OC)nc32)c1" : reported activity change, negative = inhibition = ?
-6.86

Entry "CNc1ncncc1-c1ccccc1C" : reported activity change, negative = inhibition = ?
7.16

Entry "COc1ccc(-n2c(=O)c(-c3cn(C)c4ccccc34)nc3cncnc32)cc1" : reported activity change, negative = inhibition = ?
-24.9

---

Target: Dual specificity protein kinase CLK4 (Homo sapiens) (UniProt Q9HAZ1)
Assay: qHTS Assay for Inhibitors of CDC-like Kinase 4 (ADP-Glo Assay) (AID 1771); also: nearly all actives have a fitted effect of over 70% in size
Conditions: recombinant CLK4, ADP-Glo luminescence; series mostly up to 80 µM
Excerpt: NIH Molecular Libraries Probe Production Centers Network [MLPCN] NIH Chemical Genomics Center [NCGC] […] In the assay, the ADP levels were detected using Promega ADP-Glo technology wherein the remaining ATP from the kinase reaction is first depleted with an ATPase reagent followed by a reagent that contains and enzyme which converts the ADP produced to ATP as well as Ultra-Glo luciferase and D-luciferin which generates a bioluminescence signal from the ATP. […]
Results filed as inconclusive are left out. Calls of active or inactive are those of the source. Calls follow the shape of the dose curve; as a rule, active = well fitted inhibition curve with a large enough effect; inconclusive = small, poorly fitted or top-dose-only effect; inactive = flat fitted curve, though single readings scatter.
Choose the fitting class; nothing outside active, inactive is accepted.

Consider the following illustrative entries.
>>> labelvalue("c1cn(-c2ccnc(-c3ccc4c(c3)OCO4)n2)cn1")
"active"
>>> labelvalue("COc1ccc(-c2nc3cnc(OC)nc3n(-c3ccccc3)c2=O)cc1")
"inactive"
>>> labelvalue("Cc1cnc(CNc2cc(-c3ccccc3C(F)(F)F)ncn2)cn1")
"inactive"
>>> labelvalue("Cc1noc(C)c1-c1ccc2ncnc(NCc3cccs3)c2c1")
"active"
>>> labelvalue("CN(Cc1ccco1)c1ncncc1-c1ccccc1C(F)(F)F")
"inactive"
>>> labelvalue("COc1cccc(Nc2ncc3ncc(=O)n(Cc4cccs4)c3n2)c1")
"active"
>>> labelvalue("Cn1cc(-c2nc3cnc(Oc4ccccc4)nc3n(Cc3cccs3)c2=O)c2ccccc21")
"inactive"
>>> labelvalue("N#Cc1cccc(-c2ccc3ncnc(NCCN4CCOCC4)c3c2)c1")
"active"

// param item: "COc1cccc(Cn2c(=O)c(CCc3ccccc3)nc3cncnc32)c1" ; yields the recorded call
inactive

// param item: "Cc1noc(C)c1-c1cncnc1N1CCN(C)CC1" ; yields the recorded call
inactive

// param item: "CN1CCN(c2ncc3nc(-c4cc(F)cc(F)c4)c(=O)n(CCC#N)c3n2)CC1" ; yields the recorded call
inactive
